Catalogue of compounds with associated EC50
target: Glycogen synthase kinase-3 beta (Homo sapiens); test: concentration-response blocking of human GSK3B – biochemical, luminescence, cell-free homogeneous, retest, dose response (AID 434954)

# annotated cases, reported EC50 shown
{"columns": ["COMPOUND STRUCTURE", "EC50"],
 "data": [
  ["Cc1ccc(S(=O)(=O)N2CCN(CC(=O)NN=Cc3ccco3)CC2)cc1", "> 300 µM"],
  ["N=C(NO)c1ccc(Oc2ccccc2Cl)c([N+](=O)[O-])c1", "> 300 µM"],
  ["CCOC(=O)CCCSc1nnc(CCCCCN2C(=O)c3cccc4cccc(c34)C2=O)o1", "> 300 µM"],
  ["COc1cccc(-n2sc3c(c2=S)-c2cc(OC)ccc2NC3(C)C)c1", "> 300 µM"],
  ["O=c1c2[nH]c3ccccc3c2ncn1C1CCCCC1", "> 300 µM"]
]}

Query string: Return EC50 (reported value) for this compound: "CCOC(=O)c1sc(NC(=O)CSc2nnc(C(C)C)n2C)nc1C"
Result string: 26 µM

Query string: Return value of EC50 for input "CCc1nn(CC(=O)NCCCc2ccccc2)c(=O)c2cc3c(OC)cccc3n12" , no commentary.
Result string: > 300 µM

Query string: # return recorded EC50 for entry "Cc1cccc(CSc2ccc3nnc(-c4cccs4)n3n2)c1"
Result string: > 300 µM

Query string: Find the measured EC50 of "CCOc1ccc2nc(NC(=O)CSc3nc(O)c(C#N)c(-c4ccccc4)n3)sc2c1" and report it.
Result string: 34.2 µM

Query string: # return recorded EC50 for entry "Nc1nc(NCCOCCO)nc(Nc2cccc(F)c2)c1[N+](=O)[O-]"
Result string: 10.7 µM

----------
Documented pEC50 across a set of molecules
molecular target: Glycogen synthase kinase-3 beta (Homo sapiens); assay: concentration-response blocking of human GSK3B – biochemical, luminescence, cell-free homogeneous, retest, dose response (AID 434954)
pEC50: −log10 of the molar value.

{"columns": ["MOLECULE", "MEASURED RESULT"],
 "data": [
  ["COc1ccc(-c2nn(-c3ccccc3)cc2C=NNS(=O)(=O)c2ccccc2)cc1", "< 3.52"],
  ["COc1cc(/C=C(\\C#N)C(=O)c2c[nH]c3ccccc23)cc(OC)c1O", 5.18],
  ["C/C=C/c1ccc(OCC(=O)O)c(OC)c1", "< 3.52"],
  ["COc1cc(SC)ccc1C(=O)OCC(=O)NCCNC(=O)COC(=O)c1ccc(SC)cc1OC", "< 3.52"],
  ["O=c1cccc2oc(-c3ccccc3Cl)cc(O)c1-2", "< 3.52"],
  ["Nc1nc(NCC2CCCO2)nc(Nc2cccc(F)c2)c1[N+](=O)[O-] (stereo not given)", 5.15],
  ["CC1=Nc2nnnn2C(c2sccc2C)C1C(N)=O (stereo not given)", "< 3.52"],
  ["Cn1nnc2sc3c(c2c1=O)CCCC3", 4.63],
  ["Clc1ccc2c(c1)Nc1ccccc1CC2", "< 3.52"]
]}

Now take the following molecule into account.
Query string: // fetch pEC50 given entry "O=[N+]([O-])c1ccc(N2CCCCCC2)c([N+](=O)[O-])c1"
Result string: < 3.52

----------
Property: pEC50; scope: individual molecules
target: Glycogen synthase kinase-3 beta (Homo sapiens); experiment: concentration-response blocking of human GSK3B – biochemical, luminescence, cell-free homogeneous, retest, dose response (AID 434954)
pEC50: −log10 of the molar value.

Field: example entries. Status: answers known.
{"columns": ["MOLECULE", "pEC50"],
 "data": [
  ["CCN(Cc1ccccc1)S(=O)(=O)c1ccc2c(c1)NC(=O)CC(=O)N2", 4.22],
  ["Cc1ccnc(NC(=O)C2CC(=O)N(c3ccc4c(c3)OCCO4)C2)c1 (stereo unspecified)", 4.59],
  ["Nc1nc(Nc2cccc(Cl)c2)nc(NCc2ccco2)c1[N+](=O)[O-]", 5.22],
  ["Clc1ccc2[nH]c3c(c2c1)CCc1c[nH]nc1-3", 4.60],
  ["CN=C(C)C(C(=O)OC)C(=O)c1ccc(Cl)cc1Cl (stereo unspecified)", "< 3.52"],
  ["COc1ccc(OC)c(C(=O)c2coc3ccc(OC)cc23)c1", "< 3.52"]
]}

Query string: Return value of pEC50 for input "CC(C)N1CCc2c(sc(NC(=O)Cc3ccccc3)c2C(N)=O)C1" , no commentary.
Result string: < 3.52

----------
molecular target: Glycogen synthase kinase-3 beta (Homo sapiens); assay: concentration-response blocking of human GSK3B – biochemical, luminescence, cell-free homogeneous, retest, dose response (AID 434954)
Each entry below carries its recorded EC50.

Example cases with answers are listed next.
{"columns": ["COMPOUND", "EC50"],
 "data": [
  ["CCCCCCNC(=O)C(C(=O)OCC)C1CCCCC1 (stereo not given)", "> 300 µM"],
  ["Cc1ccccc1CN=Nc1ncnc2nc[nH]c12 [MLS000419110]", "17.2 µM"],
  ["O=C(C1CCCN(S(=O)(=O)c2ccccc2)C1)N1CCN(c2ncccn2)CC1 (stereo not given)", "> 300 µM"]
]}

Query string: Provide one value: measured EC50 of CCC(C)NC(=O)CNC(=S)N(CCCN1CCOCC1)Cc1cccs1 (stereo not given)
Result string: > 300 µM

Query string: Determine from records and report EC50 for "Cn1nc(C(F)(F)F)c2cc(NC(=O)OCc3ccc(C(C)(C)C)cc3)sc21"
Result string: > 300 µM

Query string: Consider the compound COc1ccc(S(=O)(=O)Nc2c(C(=O)O)[nH]c3ccc(OC)cc23)c(OC)c1 [SMR000650153] . State its measured EC50.
Result string: 1.15 µM

Query string: Tell us which EC50 value is on record for Cc1c(NC(=O)C(C)OC(=O)COc2ccccc2)c(=O)n(-c2ccccc2)n1C (stereo not given)
Result string: > 300 µM

Query string: Please report the measured EC50 for "CCCCOc1ccc(/C=C/C(=O)OCC(=O)N2CC(=O)Nc3ccccc32)cc1OCC"
Result string: > 300 µM

Query string: Check the records and state EC50 for "COc1cccc2cc(C(=O)CS(=O)(=O)c3ccc(C)cc3)c(=O)oc12"
Result string: > 300 µM

----------
biological target: Glycogen synthase kinase-3 beta (Homo sapiens); experiment: concentration-response blocking of human GSK3B – biochemical, luminescence, cell-free homogeneous, retest, dose response (AID 434954)
MEASUREMENT KIND: EC50 (µM)
Write down the numeric answer in µM and omit the unit.

Some molecules with known EC50 results, for comparison:
{"columns": ["MOLECULE", "EC50 [µM]"],
 "data": [
  ["O=C(CCS(=O)(=O)c1ccccc1)Nc1cccc2c1C(=O)NC2=O", 25.2],
  ["Nc1nc(NCC2CCCO2)nc(Nc2ccccc2F)c1[N+](=O)[O-] (configuration not stated)", 2.33]
]}

Query string: Write down EC50 measured for item "COCc1c(C(=O)NN=Cc2ccncc2)nnn1-c1nonc1N"
Result string: 40.1

----------
biological target: Glycogen synthase kinase-3 beta (Homo sapiens, UniProt P49841); experiment: concentration-response blocking of human GSK3B – biochemical, luminescence, cell-free homogeneous, retest, dose response (AID 434954)
Sequence (P49841 whole entry): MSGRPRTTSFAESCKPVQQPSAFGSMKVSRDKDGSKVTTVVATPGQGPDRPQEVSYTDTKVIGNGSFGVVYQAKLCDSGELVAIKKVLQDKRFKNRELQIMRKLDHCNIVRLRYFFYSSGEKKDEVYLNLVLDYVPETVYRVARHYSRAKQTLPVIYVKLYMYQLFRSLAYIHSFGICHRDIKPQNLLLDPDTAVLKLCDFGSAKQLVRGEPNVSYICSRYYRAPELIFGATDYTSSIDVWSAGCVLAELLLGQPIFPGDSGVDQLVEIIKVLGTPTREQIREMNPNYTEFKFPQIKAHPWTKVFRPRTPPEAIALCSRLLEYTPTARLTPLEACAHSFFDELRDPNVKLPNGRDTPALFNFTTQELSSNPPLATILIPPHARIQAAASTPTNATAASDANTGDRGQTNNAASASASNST
MEASUREMENT KIND: EC50

{"columns": ["MOLECULE", "ASSAYED TARGET", "EC50"],
 "data": [
  ["O=C(COc1cccc2cccnc12)NN=Cc1ccc(O)cc1", "Glycogen synthase kinase-3 beta (Homo sapiens, UniProt P49841)", "9.3 µM"],
  ["CCOC(=O)c1cnc2ccccc2c1Nc1ccc(C(=O)O)cc1 [SMR000299060]", "Glycogen synthase kinase-3 beta (Homo sapiens, UniProt P49841)", "> 300 µM"]
]}

Query string: Please report the measured EC50 for "COc1ccc(C(=O)c2coc3ccc(OC(C)=O)cc23)cc1"
Result string: > 300 µM

Query string: Note EC50 for the molecule shown: "CN(C)Cc1c(C(=O)NN=Cc2ccncc2)nnn1-c1nonc1N"
Result string: 6.17 µM

Query string: Provide measured EC50 value, entry: "Cc1cccn2c(=O)nc(SCC(=O)NC3CCCCC3)nc12"
Result string: > 300 µM

Query string: Specify EC50 for Nc1nc(NCC2CCCO2)nc(Nc2ccc(F)cc2)c1[N+](=O)[O-] (stereo unspecified) [SMR000219528] and stop.
Result string: 5.82 µM

Query string: Look up and state reported EC50 for "Cc1ccc(NC(=O)Nc2cc(-c3ccccc3)nn2C)cc1Cl"
Result string: > 300 µM

Query string: Check the records and state EC50 for O=C1c2ccccc2-c2onc3ccc(NCCCn4ccnc4)c1c23 [SMR000044769]
Result string: 167 µM

Query string: Determine from records and report EC50 for O=C1CCCc2oc3ccc(O)cc3c21 [SMR000125008]
Result string: > 300 µM

Query string: Specify reported EC50 for the molecule shown: CN(c1ccccc1C(=O)Nc1cccc(C(F)(F)F)c1)S(C)(=O)=O [MLS000096933]
Result string: > 300 µM

Query string: Report measured EC50; entry is "CNc1nc2c(N)ncnc2n1[C@H]1O[C@@H](CO)[C@H](O)[C@@H]1O"
Result string: > 300 µM
